Entry source: ChEMBL document CHEMBL1140350

Target: Fatty-acid amide hydrolase 1 (Homo sapiens)
Test: Binding affinity for human fatty acid amide hydrolase
OBSERVABLE: Ki (nM)
Report the figure in nM without appending any unit label.

GET /value?item= `O=C(CCCCCc1ccccc1)c1nc2ncccc2o1` &field=Ki returns 0.094

###

# pIC50 per entry for N-acylethanolamine-hydrolyzing acid amidase (Homo sapiens, UniProt Q02083)
The value called pIC50 is obtained by taking minus log10 of the concentration in mol/L.

Summary line: CCCCCCCCCCCCCCCC(=O)OC1CCCCC1 [CYCLOHEXYL PALMITATE] , N-acylethanolamine-hydrolyzing acid amidase (Homo sapiens, UniProt Q02083), reported pIC50 = 4.72

Short answer on N-acylethanolamine-hydrolyzing acid amidase (Homo sapiens, UniProt Q02083) for CCCCCCCCCCCCCCCCOC(=O)CC [HEXADECYLPROPIONATE] , pIC50: 4.49

For the molecule `CCCCCCCCCCCCCCCNC(=O)C1CCCCC1` , the measured pIC50 on N-acylethanolamine-hydrolyzing acid amidase (Homo sapiens, UniProt Q02083) was 5.35

Given the molecule `CCCCCCCCCCCCCCCNC(=O)CCO` and test system N-acylethanolamine-hydrolyzing acid amidase (Homo sapiens, UniProt Q02083), the measured pIC50 is 4.27

###

Target: Cannabinoid receptor 1 (Rattus norvegicus)
Sequence (P20272 whole entry): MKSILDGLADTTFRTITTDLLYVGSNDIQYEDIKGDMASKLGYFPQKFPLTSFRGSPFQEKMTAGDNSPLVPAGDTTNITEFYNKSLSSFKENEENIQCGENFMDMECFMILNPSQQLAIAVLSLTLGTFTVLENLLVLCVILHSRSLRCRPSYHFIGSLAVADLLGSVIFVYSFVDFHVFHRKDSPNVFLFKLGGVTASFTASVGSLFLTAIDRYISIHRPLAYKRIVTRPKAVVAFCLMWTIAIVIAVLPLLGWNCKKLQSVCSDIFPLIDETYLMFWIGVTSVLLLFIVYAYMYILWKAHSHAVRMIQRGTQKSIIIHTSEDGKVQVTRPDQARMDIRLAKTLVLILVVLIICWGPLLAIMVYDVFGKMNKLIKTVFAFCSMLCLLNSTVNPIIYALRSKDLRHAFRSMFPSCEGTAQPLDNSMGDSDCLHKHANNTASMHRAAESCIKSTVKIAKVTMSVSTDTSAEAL
Assay: Inhibition of [3H]CP-55940 binding to rat cannabinoid receptor 1
OBSERVABLE: Ki

The compound listed as CCCCCCCC/C=C\CCCCCCCC(N)=O [OLEAMIDE] has a reported Ki of 1140 nM

###

Experiment: Binding affinity for cannabinoid receptor 2
Below is a list of entries, each paired with its recorded Ki value.
Note: unit nM is implicit; provide only the numeric part.

These recorded examples may help you get a feel for the data.
• CCCCCc1cc(O)c2c(c1)OC(C)(C)[C@@H]1CCC(C)=C[C@@H]21 = 20
• CCCCCCC(C)(C)c1ccc([C@@H]2C[C@H](O)CC[C@H]2CCCO)c(O)c1 = 2.6
• CCCCC/C=C\C/C=C\C/C=C\C/C=C\CCCC(=O)NCCc1ccc(O)c(O)c1 = 12
• Cc1c(C(=O)c2cccc3ccccc23)c2cccc3c2n1[C@H](CN1CCOCC1)CO3 = 1.8
• CCCCC/C=C\C/C=C\C/C=C\C/C=C\CCCC(=O)OCCN = 1400

Next, consider the following compound.
Documented Ki of CCCCC/C=C\C/C=C\C/C=C\C/C=C\CCCC(=O)NCCO [ANANDAMIDE] : 370

###

Target: Monoglyceride lipase (Homo sapiens)
Sequence (Q99685 whole entry): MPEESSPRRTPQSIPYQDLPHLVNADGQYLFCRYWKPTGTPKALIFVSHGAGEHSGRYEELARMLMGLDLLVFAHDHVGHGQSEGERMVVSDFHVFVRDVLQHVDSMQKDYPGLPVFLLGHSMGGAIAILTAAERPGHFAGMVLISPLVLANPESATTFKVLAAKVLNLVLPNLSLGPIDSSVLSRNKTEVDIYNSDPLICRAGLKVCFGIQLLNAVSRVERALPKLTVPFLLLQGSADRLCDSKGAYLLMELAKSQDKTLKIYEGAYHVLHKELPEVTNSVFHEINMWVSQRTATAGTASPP
Readings of IC50 for the listed molecules

* CC(C)(/C=C\C/C=C\C/C=C\C/C=C\CCCC(=O)OCC(O)CO)CCCCC#N (centres undefined) | ~11 µM
* CCCCC/C=C\C/C=C\C/C=C\C/C=C\CCCC(=O)OCCO | 25 µM

Observed IC50, Monoglyceride lipase (Homo sapiens), CC(C)(/C=C\C/C=C\C/C=C\C/C=C\CCCC(=O)OCC(O)CO)CCCCO (centres undefined) : ~11 µM

Measured IC50 (Monoglyceride lipase (Homo sapiens)), entry CCCCC/C=C\C/C=C\C/C=C\C/C=C\CCC(C)C(=O)OCC(O)CO (centres undefined) : ~11 µM

###

Biological target: Fatty-acid amide hydrolase 1 (Homo sapiens, UniProt O00519)
Sequence (O00519 whole entry): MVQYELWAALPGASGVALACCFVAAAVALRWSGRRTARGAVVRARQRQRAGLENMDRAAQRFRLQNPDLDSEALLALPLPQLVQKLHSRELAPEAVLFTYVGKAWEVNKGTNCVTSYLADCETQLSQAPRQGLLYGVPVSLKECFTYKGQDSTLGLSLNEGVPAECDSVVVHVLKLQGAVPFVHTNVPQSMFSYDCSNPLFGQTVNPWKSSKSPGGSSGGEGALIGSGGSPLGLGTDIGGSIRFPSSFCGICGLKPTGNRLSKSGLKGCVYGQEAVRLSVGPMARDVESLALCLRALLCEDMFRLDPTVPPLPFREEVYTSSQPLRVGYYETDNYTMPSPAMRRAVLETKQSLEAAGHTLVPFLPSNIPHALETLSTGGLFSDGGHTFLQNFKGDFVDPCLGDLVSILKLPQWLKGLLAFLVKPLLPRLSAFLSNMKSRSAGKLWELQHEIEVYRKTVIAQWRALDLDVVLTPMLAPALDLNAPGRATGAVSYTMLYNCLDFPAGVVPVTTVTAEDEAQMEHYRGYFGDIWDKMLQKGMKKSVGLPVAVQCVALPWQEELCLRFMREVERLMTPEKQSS
Experiment: Irreversible inhibition of fatty acid amide hydrolase
OBSERVABLE: IC50 (nM)
Hi! Could you send only the number? It should be in nM, unit omitted.

- CCCCCCCCCCCCCCCCCCS(=O)(=O)F [OCTADECANESULFONYL FLUORIDE]: 4
- O=C1O/C(=C/Br)CCC1c1cccc2ccccc12 (stereo not given) [BROMOENOL LACTONE]: 800
- CCCCC/C=C\C/C=C\C/C=C\C/C=C\CCCCS(=O)(=O)F: 0.1
- CCCCCCCCCCCCS(=O)(=O)F [DODECANESULFONYL FLUORIDE]: 3

For reference, reported IC50 for O=S(=O)(F)Cc1ccccc1 [PHENYLMETHYLSULFONYLFLUORIDE] stands at 13000
